Target: T1, recombinant His-tagged Der p1 (dust mite, UniProt P08176 99-320, limits assumed)
T1 construct: Recombinant His-tagged protein made by the applicant; also called Der p1-His; Der pl; not shown: His tag
T1 sequence (looked up): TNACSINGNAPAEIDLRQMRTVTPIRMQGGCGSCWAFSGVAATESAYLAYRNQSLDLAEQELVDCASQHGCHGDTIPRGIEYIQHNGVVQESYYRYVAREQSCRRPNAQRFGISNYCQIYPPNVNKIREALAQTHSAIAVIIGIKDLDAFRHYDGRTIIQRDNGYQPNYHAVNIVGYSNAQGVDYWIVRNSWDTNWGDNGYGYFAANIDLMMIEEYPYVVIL
Assay: ELISA, Der p1 on plate, biotinylated peptide at 0.123, duplicate 1
No end group written: not given here.
Rule: measured OD450 below 0.07 OD450 gets yes (1); anything equal to or greater than 0.07 OD450 gets no (0).

| BINDER | LABEL_CLASS |
| --- | --- |
| LTGYGMS (also: biotinylated, site not given here, 7-amino acid peptide from a phage display library) [SDAB22110-2-D9] | yes (1) |
| GIHMALM (also: biotinylated, site not given here, 7-amino acid peptide from a phage display library) [SDAB22110-2-B2] | no (0) |
| AVVSFYP (also: biotinylated, site not given here, 7-amino acid peptide from a phage display library) [SDAB22110-2-F1] | no (0) |
| YPTWAYR (also: biotinylated, site not given here, 7-amino acid peptide from a phage display library) [SDAB22110-2-C3] | yes (1) |
| VVAFGIS (also: biotinylated, site not given here, 7-amino acid peptide from a phage display library) [SDAB22110-2-G1] | no (0) |

// next entry
Please indicate whether the reported OD450 of HSGPECG (also: biotinylated, site not given here, 7-amino acid peptide from a phage display library) [SDAB22110-2-D3] is strictly below 0.07 OD450. no (0)
